These entries and their values trace back to PubChem BioAssay (NCI).

# System: MDA-MB-468 breast
# experimentSummary: NCI tumour cell line growth inhibition, 48 h
Grouping by measured TGI is done with the following cut points: low group (below 5 µM), middle group (5 µM to below 20 µM), high group (20 µM or more)

CC(C)n1c(=O)n(C)c2cnc3cc(F)c(-c4ccc(OCCCN5CCCCC5)nc4)cc3c21	high group
COc1ccc(OC)c(/C=C2\COc3ccc(O)c(O)c3C2=O)c1	middle group
C=CC[C@@H]1/C=C(\C)C[C@H](C)C[C@H](OC)[C@H]2O[C@@](O)(C(=O)C(=O)N3CCCC[C@H]3C(=O)O[C@H](/C(C)=C/C3CC[C@@H](O)[C@H](OC)C3)[C@H](C)[C@@H](O)CC1=O)[C@H](C)C[C@@H]2OC (stereo partly specified)	high group
COc1ccc(-c2nn(-c3cccc(NC(=O)c4cccc(C(F)(F)F)c4)c3)cc2-c2ccncc2)cc1Cl	middle group
COc1cc(C2CC(c3ccccc3)=NN2C(C)=O)cc(OC)c1OC (stereo unspecified)	high group
O=C(NCCNc1nccc(-c2c(-c3cccc(O)c3)nc3sccn23)n1)Nc1cccc(C(F)(F)F)c1	low group
O=S(=O)(CCNCc1ccc(-c2ccc3ncnc(Nc4ccc(OCc5cccc(F)c5)c(Cl)c4)c3c2)o1)c1ccccc1	middle group
CCN(CC)CCCCNc1ncc2cc(-c3cc(OC)cc(OC)c3)c(NC(=O)NC(C)(C)C)nc2n1	high group
CC1(C)N=C(N)N=C(N)N1c1cccc(CCCCOc2ccccc2)c1	low group
Cc1[nH]nc2ccc3nc(-c4ccc5[nH]ncc5c4)c4c(c3c12)CCCC4	low group
O=C(c1ccc(Cl)cc1)C1[C@H](c2ccccc2Cl)[C@@H](c2ccccc2)NC12C(=O)Nc1ccccc12 (stereo partly specified)	high group
